assay.overview: Stability in mouse liver microsomes (MLM)
Assay type: in vitro ADME
condition.label: C57BL/6, pH 7.4, n = 3
Use 40 min as the dividing line for half-life at 10 μM, with the line itself on the Yes side and lower values as No.

{"compound": "CC(CCC(=O)NC(Cc1ccccc1)C(=O)NC(CCCCN)C(=O)OC1CCN(C(=O)C(Cc2ccc(F)cc2)NC(=O)c2cc3cc(Cl)ncc3[nH]2)CC1)C1CCC2C3C(O)CC4CC(O)CCC4(C)C3CC(O)C12C (stereo not drawn) [Conjugate 8]", "label": "Yes"}

Check if half-life at 10 μM >= 40 min (inclusive). Item: C[C@H](CCC(=O)NCCNC(=O)c1ccc(/N=N/c2ccccc2CCC(=O)OC2CCN(C(=O)[C@H](Cc3ccc(F)cc3)NC(=O)c3cc4cc(Cl)ncc4[nH]3)CC2)cc1)[C@H]1CC[C@H]2[C@@H]3[C@H](O)C[C@@H]4C[C@H](O)CC[C@]4(C)[C@H]3C[C@H](O)[C@]12C [Conjugate 9]
Yes

Could you verify whether the entry `O=C(N[C@@H](Cc1ccc(F)cc1)C(=O)N1CCC(O)CC1)c1cc2cc(Cl)ncc2[nH]1` shows half-life at 10 μM of no less than 40 min?
Yes

###

target.or.system: rabbit muscle GPa (RMGPa) (Oryctolagus cuniculus, UniProt P00489)
Sequence (P00489 2-843 limits assumed): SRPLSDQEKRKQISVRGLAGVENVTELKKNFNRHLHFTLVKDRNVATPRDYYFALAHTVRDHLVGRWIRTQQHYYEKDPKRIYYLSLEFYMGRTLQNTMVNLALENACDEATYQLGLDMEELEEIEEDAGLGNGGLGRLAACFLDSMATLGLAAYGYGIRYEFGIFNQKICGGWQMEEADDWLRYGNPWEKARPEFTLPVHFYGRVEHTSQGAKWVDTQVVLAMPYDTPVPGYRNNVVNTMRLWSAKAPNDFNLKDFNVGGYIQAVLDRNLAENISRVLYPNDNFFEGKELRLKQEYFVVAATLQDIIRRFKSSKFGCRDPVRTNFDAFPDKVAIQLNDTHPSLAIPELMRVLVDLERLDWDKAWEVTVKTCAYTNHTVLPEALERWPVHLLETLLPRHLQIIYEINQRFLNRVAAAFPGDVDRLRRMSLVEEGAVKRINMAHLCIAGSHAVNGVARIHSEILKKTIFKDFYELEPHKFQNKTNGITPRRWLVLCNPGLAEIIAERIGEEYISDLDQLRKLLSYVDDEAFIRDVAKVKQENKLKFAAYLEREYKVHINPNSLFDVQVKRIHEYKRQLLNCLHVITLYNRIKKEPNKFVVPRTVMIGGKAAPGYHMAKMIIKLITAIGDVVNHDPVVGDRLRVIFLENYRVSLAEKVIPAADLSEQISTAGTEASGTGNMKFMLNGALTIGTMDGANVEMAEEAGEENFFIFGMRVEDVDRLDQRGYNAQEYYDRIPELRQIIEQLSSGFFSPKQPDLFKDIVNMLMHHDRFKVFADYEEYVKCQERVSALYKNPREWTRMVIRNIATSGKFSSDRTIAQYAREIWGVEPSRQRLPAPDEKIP
assay.overview: RMGPa inhibition assay (phosphate release from glucose-1-phosphate)
Assay type: biochemical
condition.label: mean ± S.D. of three determinations; NI means no inhibition
Would you mind telling me the reported pIC50 of each entry?
One number for each entry, as −log10 of the molar value.

Worked set:
{"compound": "C[C@H](CCC(=O)N[C@@H](CO)C(=O)OC1CCN(C(=O)[C@H](Cc2ccc(F)cc2)NC(=O)c2cc3cc(Cl)ncc3[nH]2)CC1)[C@H]1CC[C@H]2[C@@H]3[C@H](O)C[C@@H]4C[C@H](O)CC[C@]4(C)[C@H]3C[C@H](O)[C@]12C [Conjugate 5]", "pIC50": 4.09}
{"compound": "C[C@H](NC(=O)CC[C@@H](C)[C@H]1CC[C@H]2[C@@H]3[C@H](O)C[C@@H]4C[C@H](O)CC[C@]4(C)[C@H]3C[C@H](O)[C@]12C)C(=O)OC1CCN(C(=O)[C@H](Cc2ccc(F)cc2)NC(=O)c2cc3cc(Cl)ncc3[nH]2)CC1 [Conjugate 3]", "pIC50": 4.39}

Your task in this section: give pIC50 for each listed record.
1. C[C@H](CCC(=O)N(C)CC(=O)OC1CCN(C(=O)[C@H](Cc2ccc(F)cc2)NC(=O)c2cc3cc(Cl)ncc3[nH]2)CC1)[C@H]1CC[C@H]2[C@@H]3[C@H](O)C[C@@H]4C[C@H](O)CC[C@]4(C)[C@H]3C[C@H](O)[C@]12C [Conjugate 2]
2. CN(C)C(=O)[C@H](O)[C@H](Cc1ccccc1)NC(=O)c1cc2cc(Cl)ccc2[nH]1 [CP-91149, reference compound]

[4.58, 7.05]

###

Please provide measured CLint scaled at 10 μM for the entries that follow.
assay.overview: Stability in mouse liver microsomes (MLM)
Type: in vitro ADME
condition.label: C57BL/6, pH 7.4, n = 3
Answers are plain numbers, in mL/min/kg.

{"compound": "C[C@H](CCC(=O)NCCNC(=O)c1ccc(/N=N/c2ccccc2CCC(=O)OC2CCN(C(=O)[C@H](Cc3ccc(F)cc3)NC(=O)c3cc4cc(Cl)ncc4[nH]3)CC2)cc1)[C@H]1CC[C@H]2[C@@H]3[C@H](O)C[C@@H]4C[C@H](O)CC[C@]4(C)[C@H]3C[C@H](O)[C@]12C [Conjugate 9]", "scale.unit": "mL/min/kg", "observed.value": 60.2}
{"compound": "O=C(O)Cc1ccccc1Nc1c(Cl)cccc1Cl [Diclofenac, diclofenac, reference compound]", "scale.unit": "mL/min/kg", "observed.value": 208}
{"compound": "CC(NC(=O)C(NC(=O)CCC(C)C1CCC2C3C(O)CC4CC(O)CCC4(C)C3CC(O)C12C)C(C)C)C(=O)OC1CCN(C(=O)C(Cc2ccc(F)cc2)NC(=O)c2cc3cc(Cl)ncc3[nH]2)CC1 (centres unmarked) [Conjugate 7]", "scale.unit": "mL/min/kg", "observed.value": 1180}
{"compound": "C[C@H](NC(=O)CC[C@@H](C)[C@H]1CC[C@H]2[C@@H]3[C@H](O)C[C@@H]4C[C@H](O)CC[C@]4(C)[C@H]3C[C@H](O)[C@]12C)C(=O)OC1CCN(C(=O)[C@H](Cc2ccc(F)cc2)NC(=O)c2cc3cc(Cl)ncc3[nH]2)CC1 [Conjugate 3]", "scale.unit": "mL/min/kg", "observed.value": 200}
{"compound": "C[C@H](CCC(=O)N[C@@H](CC(=O)O)C(=O)OC1CCN(C(=O)[C@H](Cc2ccc(F)cc2)NC(=O)c2cc3cc(Cl)ncc3[nH]2)CC1)[C@H]1CC[C@H]2[C@@H]3[C@H](O)C[C@@H]4C[C@H](O)CC[C@]4(C)[C@H]3C[C@H](O)[C@]12C [Conjugate 6]", "scale.unit": "mL/min/kg", "observed.value": 64.9}

I'm hoping you can list CLint scaled at 10 μM for every compound here, please.
1. C[C@H](CCC(=O)NCC(=O)OC1CCN(C(=O)[C@H](Cc2ccc(F)cc2)NC(=O)c2cc3cc(Cl)ncc3[nH]2)CC1)[C@H]1CC[C@H]2[C@@H]3[C@H](O)C[C@@H]4C[C@H](O)CC[C@]4(C)[C@H]3C[C@H](O)[C@]12C [Conjugate 1]
2. C[C@H](CCC(=O)N[C@@H](CO)C(=O)OC1CCN(C(=O)[C@H](Cc2ccc(F)cc2)NC(=O)c2cc3cc(Cl)ncc3[nH]2)CC1)[C@H]1CC[C@H]2[C@@H]3[C@H](O)C[C@@H]4C[C@H](O)CC[C@]4(C)[C@H]3C[C@H](O)[C@]12C [Conjugate 5]
3. C[C@H](CCC(=O)N(C)CC(=O)OC1CCN(C(=O)[C@H](Cc2ccc(F)cc2)NC(=O)c2cc3cc(Cl)ncc3[nH]2)CC1)[C@H]1CC[C@H]2[C@@H]3[C@H](O)C[C@@H]4C[C@H](O)CC[C@]4(C)[C@H]3C[C@H](O)[C@]12C [Conjugate 2]
4. CC(CCC(=O)NC(Cc1ccccc1)C(=O)NC(CCCCN)C(=O)OC1CCN(C(=O)C(Cc2ccc(F)cc2)NC(=O)c2cc3cc(Cl)ncc3[nH]2)CC1)C1CCC2C3C(O)CC4CC(O)CCC4(C)C3CC(O)C12C (centres unmarked) [Conjugate 8]

172
135
220
64.2

Tell me the measured CLint scaled at 10 μM of CC(C)[C@H](NC(=O)CC[C@@H](C)[C@H]1CC[C@H]2[C@@H]3[C@H](O)C[C@@H]4C[C@H](O)CC[C@]4(C)[C@H]3C[C@H](O)[C@]12C)C(=O)OC1CCN(C(=O)[C@H](Cc2ccc(F)cc2)NC(=O)c2cc3cc(Cl)ncc3[nH]2)CC1 [Conjugate 4] , please.
150
